Species on record: Homo sapiens
Experiment: Selectivity ratio against human and […] ATCC 49619 dihydrofolate reductase
The entries below are paired with their reported Ratio.
Just the number, please, no unit after it.

Sample answers from the record:
{"columns": ["compound", "experimental endpoint", "reported"],
 "data": [
  ["COc1cc2c(cc1OC)C(C)N(Cc1cnc(N)nc1N)CC2 (stereo not drawn)", "Ratio", 15],
  ["CSc1c2n(c3cc(Cl)ccc13)CCN(Cc1cnc(N)nc1N)C2", "Ratio", 2600],
  ["COc1ccc2c(c1)CN(Cc1cnc(N)nc1N)CC2c1cccc([N+](=O)[O-])c1 (stereo not drawn)", "Ratio", 16700],
  ["COc1cc2c(cc1OC)C(c1ccc(Cl)cc1Cl)CN(Cc1cnc(N)nc1N)C2 (stereo not drawn)", "Ratio", 243],
  ["CC1c2cc(Cc3ccccc3)c(-c3ccccc3)n2CCN1Cc1cnc(N)nc1N (stereo not drawn)", "Ratio", 40],
  ["Nc1ncc(CN2CCc3c([nH]c4ccccc34)C2)c(N)n1", "Ratio", 45000]
]}

Now look at this one.
Can you share its Ratio? I mean this compound: CC1c2ccc3c4ccccc4n(C)c3c2CCN1Cc1cnc(N)nc1N (stereo not drawn)
21
